Measured CC50 accompanies every entry in the list below.
# PROCEDURE TEXT: Cytotoxicity in PBM cells
# Type: cell-based
# TEST CONTEXT: human, peripheral blood mononuclear (PBM) cells, read-out: HIV-1 in PBM cells CC50

// worked examples, CC50 included
Nc1nc2c(ncn2CCC(CO)CO)c(=O)[nH]1 : > 100 µM
CN(C)c1ccc2nc3ccc(=[N+](C)C)cc-3sc2c1 : 6.1 µM
Cc1cn([C@@H]2C[C@@H](O)[C@H](CO)O2)c(=O)[nH]c1=O : > 100 µM
Cc1cn([C@H]2C[C@H](F)[C@@H](CO)O2)c(=O)[nH]c1=O : 13.8 µM

Query block: Item under review: `CC(C)(C)NC(=O)[C@@H]1CN(Cc2cccnc2)CCN1C[C@@H](O)C[C@@H](Cc1ccccc1)C(=O)N[C@H]1c2ccccc2C[C@H]1O` . Reported CC50?
Result block: > 100 µM

Query block: Here is the next molecule: Cc1cn([C@H]2C[C@H](N=[N+]=[N-])[C@@H](CO)O2)c(=O)[nH]c1=O [3'-Azido-3'-deoxythymidine (ZDV), 3'-Azido-3'-deoxythymidine]
Result block: > 100 µM

Query block: Here is the next molecule: `Nc1ncnc2c1ncn2[C@@H]1O[C@H](CO)[C@@H](O)[C@@H]1O`
Result block: > 100 µM

Query block: Here is the next molecule: `C[C@H](Cn1cnc2c(N)ncnc21)OCP(=O)(O)O`
Result block: > 100 µM

Query block: Here is the next molecule: `COC(=O)N[C@H](C(=O)N[C@@H](Cc1ccccc1)[C@@H](O)CN(Cc1ccc(-c2ccccn2)cc1)NC(=O)[C@@H](NC(=O)OC)C(C)(C)C)C(C)(C)C`
Result block: 27.2 µM

Query block: Here is the next molecule: `Nc1nc(NC2CC2)c2ncn([C@H]3C=C[C@@H](CO)C3)c2n1`
Result block: 92.9 µM

Query block: Here is the next molecule: `CCC[C@@]1(CCc2ccccc2)CC(O)=C([C@H](CC)c2cccc(NS(=O)(=O)c3ccc(C(F)(F)F)cn3)c2)C(=O)O1`
Result block: > 100 µM

* * *

Measured CC50 accompanies every entry in the list below.
# PROCEDURE TEXT: Cytotoxicity in PBM cells
# Format: cell-based
# TEST CONTEXT: human, read-out: HIV-1 in PBM cells CC50

Query block: Item under review: C[C@]12CC[C@H](O)CC1=CC[C@@H]1[C@@H]2CC[C@]2(C)C(=O)CC[C@@H]12 [Dehydroepiandrosterone (DHEA), Dehydroepiandrosterone] . Reported CC50?
Result block: > 100 µM

Query block: Here is the next compound: Cc1nnc(C(=O)NC(C)(C)c2nc(C(=O)NCc3ccc(F)cc3)c(O)c(=O)n2C)o1 [Raltegravir (RAL, MK-0518), Raltegravir]
Result block: > 100 µM

* * *

# Test system: HIV-1LAI
# PROCEDURE TEXT: HIV-1 replication in PHA-stimulated peripheral blood mononuclear cells
# Format: cell-based
# TEST CONTEXT: Human immunodeficiency virus 1, PBMC, read-out: HIV-1 in PBM cells EC90
MEASURED PROPERTY: EC90

Query block: Item under review: Nc1nc2c(ncn2COCCO)c(=O)[nH]1 [Acyclovir (ACV), Acyclovir] . Reported EC90?
Result block: > 100 µM

Query block: Here is the next molecule: Cc1cn([C@@H]2C[C@@H](O)[C@H](CO)O2)c(=O)[nH]c1=O [Telbivudine (LdT), Telbivudine]
Result block: > 100 µM

Query block: Here is the next molecule: Nc1ncnc2c1ncn2[C@@H]1O[C@H](CO)[C@@H](O)[C@@H]1O [Vidarabine (ara-A), Vidarabine]
Result block: > 100 µM

Recorded values, source paper PMC2848589.
